- target: Peptide N-myristoyltransferase (Candida albicans)
property label: IC50 (nM)
Entry rule: numbers only, all in nM.

Some molecules with recorded IC50:
{"molecule": "NCCCC[C@H](NC(=O)[C@H](CO)NC(=O)Cc1ccc(CCCCn2ccnc2)cc1)C(=O)NCCC1CCCCC1", "target": "Peptide N-myristoyltransferase (Candida albicans)", "measurement unit": "nM", "measured result": 310}
{"molecule": "NCCCC[C@H](NC(=O)[C@H](CO)NC(=O)CCCCCCCCCCCn1ccnc1)C(=O)NCCC1CCCCC1", "target": "Peptide N-myristoyltransferase (Candida albicans)", "measurement unit": "nM", "measured result": 3000}
{"molecule": "Cc1nc2ccccc2n1CCCCc1ccc(C(C)C(=O)N[C@@H](CO)C(=O)N[C@@H](CCCCN)C(=O)NCCC2CCCCC2)cc1 (some centres undefined)", "target": "Peptide N-myristoyltransferase (Candida albicans)", "measurement unit": "nM", "measured result": 860}

Now take the following molecule into account.
Task item: Jot down IC50 (Peptide N-myristoyltransferase (Candida albicans)) of NCCCC[C@H](NC(=O)[C@H](CO)NC(=O)Cc1ccc(CCCCn2ccnc2I)cc1)C(=O)NCCC1CCCCC1 .
Reply: 1880

###

This document collects IC50 values reported for Peptide N-myristoyltransferase (Candida albicans).
Entry rule: numbers only, all in µM.

Some molecules with recorded IC50:
{"molecule": "Cc1nccn1CCCCc1ccc(CC(=O)N[C@@H](CO)C(=O)N[C@@H](CCCCN)C(=O)N[C@@H](CC2CCCCC2)C(=O)O)cc1", "IC50, µM": 1.45}
{"molecule": "CC(C(=O)N[C@@H](CO)C(=O)N[C@@H](CCCCN)C(=O)NCCC1CCCCC1)c1ccc(CCCCn2ccnc2Cl)cc1 (some centres not stated)", "IC50, µM": 2.05}
{"molecule": "NCCCC[C@H](NC(=O)[C@H](CO)NC(=O)CCCCCCCCn1ccnc1)C(=O)NCCC1CCCCC1", "IC50, µM": 5.5}
{"molecule": "CCc1nccn1CCCCc1ccc(CC(=O)N[C@@H](CO)C(=O)N[C@@H](CCCCN)C(=O)NCCC2CCCCC2)cc1", "IC50, µM": 0.147}
{"molecule": "Cc1nccn1CCCCc1ccc(C(C)C(=O)N[C@@H](CO)C(=O)N[C@@H](CCCCN)C(=O)N[C@@H](CC2CCCCC2)C(=O)O)cc1 (some centres not stated)", "IC50, µM": 0.38}

Now take the following molecule into account.
Task item: Answer with the recorded IC50 of CC(C)c1nccn1CCCCc1ccc(CC(=O)N[C@@H](CO)C(=O)N[C@@H](CCCCN)C(=O)NCCC2CCCCC2)cc1 only.
Reply: 0.2

###

- target: Peptide N-myristoyltransferase (Candida albicans)
IC50 values for the molecules below.
Entry rule: numbers only, all in nM.

Some molecules with recorded IC50:
{"compound smiles": "NCCCC[C@H](NC(=O)[C@H](CO)NC(=O)Cc1ccc(CCCCCn2ccnc2)cc1)C(=O)NCCC1CCCCC1", "target": "Peptide N-myristoyltransferase (Candida albicans)", "measurement unit": "nM", "IC50": 1200}
{"compound smiles": "NCCCC[C@H](NC(=O)[C@H](CO)NC(=O)CCCCCCCCCn1ccnc1)C(=O)NCCC1CCCCC1", "target": "Peptide N-myristoyltransferase (Candida albicans)", "measurement unit": "nM", "IC50": 3000}

Now take the following molecule into account.
Task item: Answer with the recorded IC50 of COC(=O)[C@H](NC(=O)[C@H](CCCCN)NC(=O)[C@H](CO)NC(=O)Cc1ccc(CCCCn2ccnc2C)cc1)C(=O)O only.
Reply: 81

###

- target: Peptide N-myristoyltransferase (Homo sapiens, UniProt P30419+O60551)
- Sequence (P30419 whole entry): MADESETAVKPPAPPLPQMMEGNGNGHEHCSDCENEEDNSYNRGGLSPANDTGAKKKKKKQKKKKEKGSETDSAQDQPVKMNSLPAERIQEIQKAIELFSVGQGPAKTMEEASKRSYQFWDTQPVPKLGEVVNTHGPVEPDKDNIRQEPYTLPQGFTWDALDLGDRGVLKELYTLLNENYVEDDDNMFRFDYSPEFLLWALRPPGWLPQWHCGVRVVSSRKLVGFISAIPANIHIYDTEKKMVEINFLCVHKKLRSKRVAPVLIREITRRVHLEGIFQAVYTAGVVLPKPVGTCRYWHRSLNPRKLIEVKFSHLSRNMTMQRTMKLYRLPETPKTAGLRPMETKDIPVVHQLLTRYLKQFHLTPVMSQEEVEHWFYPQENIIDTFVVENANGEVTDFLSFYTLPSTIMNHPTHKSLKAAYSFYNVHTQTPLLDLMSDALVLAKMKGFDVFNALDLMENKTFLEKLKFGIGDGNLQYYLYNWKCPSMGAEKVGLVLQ
- Sequence (O60551 whole entry): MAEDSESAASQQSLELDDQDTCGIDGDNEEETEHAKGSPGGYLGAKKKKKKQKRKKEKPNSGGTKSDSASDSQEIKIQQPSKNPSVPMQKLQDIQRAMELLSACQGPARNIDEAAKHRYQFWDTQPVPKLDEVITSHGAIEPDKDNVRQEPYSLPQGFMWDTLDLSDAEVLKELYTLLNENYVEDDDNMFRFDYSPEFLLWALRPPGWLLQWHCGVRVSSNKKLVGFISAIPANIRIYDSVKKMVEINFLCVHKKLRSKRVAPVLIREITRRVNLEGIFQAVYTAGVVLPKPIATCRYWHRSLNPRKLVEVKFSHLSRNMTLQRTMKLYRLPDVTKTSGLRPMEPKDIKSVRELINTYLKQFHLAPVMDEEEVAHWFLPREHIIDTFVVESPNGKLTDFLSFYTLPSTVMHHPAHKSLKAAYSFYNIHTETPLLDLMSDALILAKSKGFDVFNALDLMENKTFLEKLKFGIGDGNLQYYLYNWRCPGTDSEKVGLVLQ
- test: Inhibition activity against N-myristoyltransferase (NMT) of human.
- Type: protein assay
IC50 values for the compounds below.

Some compounds with recorded IC50:
{"compound": "Cc1nccn1CCCCc1ccc(CC(=O)N[C@H](CO)C(=O)N[C@H](CCCCN)C(=O)N[C@H](CC2CCCCC2)C(=O)O)cc1", "IC50": "> 1000 µM"}
{"compound": "Cc1nc2ccccc2n1CCCCc1ccc(C(C)C(=O)N[C@@H](CO)C(=O)N[C@@H](CCCCN)C(=O)NCCC2CCCCC2)cc1 (stereo partly drawn)", "IC50": "119.5 µM"}
{"compound": "CCc1nccn1CCCCc1ccc(CC(=O)N[C@@H](CO)C(=O)N[C@@H](CCCCN)C(=O)NCCC2CCCCC2)cc1", "IC50": "28.2 µM"}
{"compound": "Cc1nccn1CCCCc1ccc(CC(=O)N[C@@H](CO)C(=O)N[C@@H](CCCCN)C(=O)N[C@@H](CC2CCCCC2)C(=O)O)cc1", "IC50": "809.5 µM"}
{"compound": "Cc1nccn1CCCCc1ccc(C(C)C(=O)N[C@@H](CO)C(=O)N[C@@H](CCCCN)C(=O)N[C@@H](CC2CCCCC2)C(=O)O)cc1 (stereo partly drawn)", "IC50": "840 µM"}

Task item: Answer with the recorded IC50 of CC(C)c1nccn1CCCCc1ccc(CC(=O)N[C@@H](CO)C(=O)N[C@@H](CCCCN)C(=O)NCCC2CCCCC2)cc1 only.
Reply: > 100 µM

Task item: Answer with the recorded IC50 of COC(=O)[C@H](NC(=O)[C@H](CCCCN)NC(=O)[C@H](CO)NC(=O)Cc1ccc(CCCCn2ccnc2C)cc1)C(=O)O only.
Reply: 22.7 µM

Task item: Answer with the recorded IC50 of CC(C(=O)N[C@@H](CO)C(=O)N[C@@H](CCCCN)C(=O)NCCC1CCCCC1)c1ccc(CCCCn2ccnc2Cl)cc1 (stereo partly drawn) only.
Reply: 142 µM
